B1: Transitional endoplasmic reticulum ATPase, residues 26 to 106; numbered along this chain, P55072 (parent)
chain: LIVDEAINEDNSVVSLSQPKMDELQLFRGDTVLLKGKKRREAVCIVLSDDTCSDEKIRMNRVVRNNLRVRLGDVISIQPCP

variants of: B1; assay: abundance fitness (aPCA) (normalised: wild type 0, dead -1); higher = more abundant; growth selection in yeast, the domain comes from the species named; settings: Homo sapiens
Record yes whenever abundance fitness is at -0.4 or higher; record no when lower.

• G72W = yes
• E55M = yes
• N8W = yes
• P79I = yes
• R68Q = yes
• L1F = yes
• R64E = no
• K35C = yes
• V32E = no
• N11M = yes
• L24P = no
